- tgt: recombinant AhR-ARNT complex (Homo sapiens)
- Construct: encompassing the bHLH-PAS A-PAS B domains (amino acid residues 23 to 475); His6 (N, cleaved yes); FleB (Yersinia flagellin subunit, residues 54 to 332, UniProt A1JSQ5) expression tag followed by HRV 3C site (N, cleaved yes); made in house; host or cells: E. coli BL21(DE3)
- Sequence (P35869 23-475): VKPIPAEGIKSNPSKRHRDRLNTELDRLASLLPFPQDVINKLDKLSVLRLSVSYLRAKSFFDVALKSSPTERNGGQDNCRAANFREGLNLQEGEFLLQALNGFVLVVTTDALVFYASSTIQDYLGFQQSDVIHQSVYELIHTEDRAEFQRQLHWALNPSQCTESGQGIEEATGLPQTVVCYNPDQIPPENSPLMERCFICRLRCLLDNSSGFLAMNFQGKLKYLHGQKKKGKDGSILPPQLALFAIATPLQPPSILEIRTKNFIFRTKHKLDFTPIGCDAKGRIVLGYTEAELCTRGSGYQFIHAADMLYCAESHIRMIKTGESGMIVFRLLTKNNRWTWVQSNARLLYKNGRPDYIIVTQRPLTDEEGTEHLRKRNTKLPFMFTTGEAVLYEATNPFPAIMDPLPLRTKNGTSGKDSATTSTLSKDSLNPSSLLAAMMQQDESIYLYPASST
- Sequence (P53762 with tags, fused parts or gaps C256S/DEL274-297/DEL351-358 partner): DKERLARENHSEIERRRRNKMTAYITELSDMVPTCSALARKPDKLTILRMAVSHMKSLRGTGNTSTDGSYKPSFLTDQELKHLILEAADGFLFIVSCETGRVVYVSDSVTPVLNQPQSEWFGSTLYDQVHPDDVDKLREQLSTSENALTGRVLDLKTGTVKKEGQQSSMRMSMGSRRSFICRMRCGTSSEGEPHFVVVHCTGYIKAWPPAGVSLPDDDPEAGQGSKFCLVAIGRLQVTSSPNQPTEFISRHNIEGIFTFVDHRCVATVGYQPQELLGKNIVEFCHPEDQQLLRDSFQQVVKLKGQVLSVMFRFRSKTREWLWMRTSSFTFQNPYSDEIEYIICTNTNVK
- assay: Label-free microscale thermophoresis (MST) ligand binding
- measurement_parameters: 250 nM AhR-ARNT, 2% DMSO, 22 °C, label-free; read-out: Kd (MST)
pKd: −log10 of the molar value.
assay_endpoint: pKd

• Cc1ccccc1N=Nc1ccc(NC(=O)c2ccnn2C)c(C)c1 = 6.30
